// values below are reported Herbicidal activity in % against VERPE
- System: Veronica persica
- EXPERIMENT DESCRIPTION: Pre-emergence herbicidal action
- Format: in vivo
- CONDITIONS: 80 g of a.i./ha
MEASURED QUANTITY: Herbicidal activity in % against VERPE (%)

> print(dat)
                                   compound               tgt                       measured.quantity  measured.result
1  CSc1c(Cl)ccc(C(=O)c2c(C3CC3)nn(C)c2O)c1C [reference compound]  Veronica persica  Herbicidal activity in % against VERPE               50
2  COCCSc1c(Cl)ccc(C(=O)c2c(C3CC3)nn(C)c2O)c1C [drawing 17]  Veronica persica  Herbicidal activity in % against VERPE               90
3  Cc1c(C(=O)c2c(C3CC3)nn(C)c2O)ccc(Cl)c1SCC1CC1 [drawing 43]  Veronica persica  Herbicidal activity in % against VERPE               70
4  CCSc1c(Cl)ccc(C(=O)c2c(C3CC3)nn(C)c2O)c1C [drawing 18, reference compound]  Veronica persica  Herbicidal activity in % against VERPE               30
